# system.name: African Green monkey MASP-2 (in African Green monkey serum) (African Green monkey)
# assay.protocol: cell-based or functional assay
Each item that follows carries a reported Functional IC50, C3b deposition, non-human primate serum Exp #2.
endpoint.label: Functional IC50, C3b deposition, non-human primate serum Exp #2 (nM)

- binder: "scFv mother clone 17L20 (scFv) scFv: EVQLQQSGPGLVKPSQTLSLTCAISGDSVSSKRAAWDWIRQSPSRGLEWLGRTYYRSKWFNDYAISVKSRITINADTSRNQFSLQLNSVTPEDTAVYYCVKSNSGTGAFDSWGQGTLVTVSSKLSGSASAPKLEEGEFSEARVQPGLTQPPSVSVSPGQTARITCSRDKLGDKYVSWYQQKPGQSPVVVMYKDNKRPSGIPERFSGSNSGNTATLTISGTQAMDEADYYCQAWDSSTAGVFGGGTKLTVLAAAGSEQKLISEEDLNSHHHHHH"
  data.value: 71.7
- binder: "scFv mother clone 9P13 (scFv) scFv: QVQLQQSGPGLVKPSQTLSLTCAISGDSVSSNSAAWNWIRQSPSRGLEWLGRTYYRSKWYNDYAVSVKSRITINPDTSKNQFSLQLNSVTPEDTAVYYCARDPFGVPFDIWGQGTMVTVSSKLSGSASAPKLEEGEFSEARVSYELTQLPSVSVAPGQTARVTCGGNNIRSKNVHWYQQKPGQAPVLVVYDDTDRPSGIPERFSGSNSGNTATLTVSRVEAGDEADYYCQVWDTTTDHVVFGGGTKVTVLAAAGSEQKLISEEDLNSHHHHHH"
  data.value: 77.1
- binder: "scFv mother clone 17N16 (scFv, also called 17N16mc; 17N16m) scFv: QVQLQQSGPGLVKPSQTLSLTCAISGDSVSSTSAAWNWIRQSPSRGLEWLGRTYYRSKWYNDYAVSVKSRITINPDTSKNQFSLQLNSVTPEDTAVYYCARDPFGVPFDIWGQGTMVTVSSKLSGSASAPKLEEGEFSEARVSYVLTQPPSVSVAPGQTARITCGGNNIGSKNVHWYQQKPGQAPVLVVYDDSDRPSGIPERFSGSNSGNTATLTVSRVEAGDEADYYCQVWDTTTDHVVFGGGTKLTVLAAAGSEQKLISEEDLNSHHHHHH"
  data.value: 58.8
- binder: "scFv mother clone 18L16 (scFv) scFv: QVTLKESGPVLVKPTETLTLTCTVSGFSLSNARMGVSWIRQPPGKALEWLAHIFSNDEKSYSTSLKSRLTISKDTSKSQVVLTMTNMDPVDTATYYCARMAILTAGGMDVWGQGTTVTVSSKLSGSASAPKLEEGEFSEARVSYVLTQPPSVSASPGQTASITCSGDKLGDKYVSWYQQKPGRSPVLVIYRDTKRPSGIPERFSGSNYGNTATLTISGTQAVDEADYYCQAWDSGSGVFGGGTKVTVLAAAGSEQKLISEEDLNSHHHHHH"
  data.value: 128
- binder: "scFv mother clone 4D9 (scFv, also called 4D9 (18L16)) scFv: QITLKESGPVLVKPTETLTLTCTVSGFSLSNARMGVSWIRQPPGKALEWLAHIFSNDEKSYSTSLKSRLTISKDTSKSQVVLTMTNMDPVDTATYYCARMRYSSSLYGMDVWGQGTRVTVSSKLSGSASAPKLEEGEFSEARVSYELIQPPSVSVSPGQTASITCSGDKLGDKYVSWYQQKPGRSPVLVIYRDTKRPSGIPERFSGSNSGNTATLTISGTQAMDEADYYCQAWDSSTVVFGGGTKLTVLAAAGSEQKLISEEDLNSHHHHHH"
  data.value: 203
